# System: HPV16 pseudoviruses
# TEST SUMMARY: microbe, parasite or virus in culture
# Assay type: cell-based
# CONDITION CONTEXT: Human papillomavirus 16, HEK-293T, 48 h, read-out: Infectivity (SEAP Activity), 3 μM HTS standard concentration, 293T cells, 48 hrs
Where a name gives a salt, the structure may show the parent alone.
Label met when activity at 3 µM is at or above 30%; otherwise label not met.

{"COMPOUND": "Cc1ccccc1C(=O)N1CC(C)CC(C)C1 (centres unmarked) [Compound 5]", "QUALITATIVE LABEL": "not met"}
{"COMPOUND": "CCCn1c2ccccc2c2nnc(SC(CC)C(=O)Nc3ccc(Cl)cn3)nc21 (centres unmarked) [Compound 13]", "QUALITATIVE LABEL": "not met"}
{"COMPOUND": "Cc1ccc(NC(=O)Cc2ccc(F)cc2)cc1 [Compound 5585700]", "QUALITATIVE LABEL": "met"}
{"COMPOUND": "O=[N+]([O-])c1cccc(C2Nc3ccc(Cl)cc3C3C=CCC32)c1 (centres unmarked) [Compound 5658856]", "QUALITATIVE LABEL": "not met"}
{"COMPOUND": "O=C1NN(c2ccc(Cl)c(Cl)c2)C(=O)C1=Cc1ccc(Cl)c([N+](=O)[O-])c1 [Compound 5585119]", "QUALITATIVE LABEL": "met"}
{"COMPOUND": "O=C1NC(=S)SC1=Cc1cc(Br)ccc1OCc1ccccc1Cl [Compound 18]", "QUALITATIVE LABEL": "not met"}
{"COMPOUND": "O=C(Nc1ccccc1)Nc1nnc(COc2ccc(Cl)cc2)s1 [Compound 6072068]", "QUALITATIVE LABEL": "met"}
{"COMPOUND": "O=[N+]([O-])c1cc(-n2ncnc2-c2ccc3c(c2)OCO3)ccc1F [Compound 6033199]", "QUALITATIVE LABEL": "met"}
{"COMPOUND": "CCc1ccccc1N(CC(=O)OC)S(C)(=O)=O [Compound 6226431]", "QUALITATIVE LABEL": "met"}
{"COMPOUND": "CC(=O)Oc1ccc(OC(C)=O)c2c1C1C=CC2CC1 [NRB 00571]", "QUALITATIVE LABEL": "met"}
{"COMPOUND": "COc1cc(NC(=O)C=Cc2ccc(OC)c(Br)c2)c(OC)cc1Cl [Compound 5944623]", "QUALITATIVE LABEL": "met"}
{"COMPOUND": "O=C(NC(=S)Nc1ccc([N+](=O)[O-])cc1O)C12CC3CC(CC(C3)C1)C2 [Compound 5197089]", "QUALITATIVE LABEL": "not met"}
{"COMPOUND": "FC(F)(F)c1cnc2c(c1)nc(S)n2-c1ccc(Cl)cc1 [Compound 20]", "QUALITATIVE LABEL": "not met"}
{"COMPOUND": "N#CCCOCc1cccc2ccccc12 [Compound 5102121, 3-(1-naphthylmethoxy)propanenitrile]", "QUALITATIVE LABEL": "met"}
{"COMPOUND": "O=C(Nc1ccccc1C(=O)N[C@@H](Cc1ccccc1)C(=O)O)c1ccccc1 [Compound 6058136, N-[2-(benzoylamino)benzoyl]phenylalanine]", "QUALITATIVE LABEL": "met"}
{"COMPOUND": "Cc1ccc2cc(C3CC(c4ccc(Br)cc4)=NN3C(=O)CCC(=O)O)c(=O)[nH]c2c1 (centres unmarked) [Compound 5976736]", "QUALITATIVE LABEL": "met"}
{"COMPOUND": "CCOc1ccc(N(CC(=O)Nc2c(C)cccc2C)S(=O)(=O)c2ccc(SC)cc2)cc1 [Compound 5740080]", "QUALITATIVE LABEL": "met"}
{"COMPOUND": "Cc1nc2ccccc2c(=O)n1N=Cc1c(O)ccc2ccccc12 [Compound 6001901]", "QUALITATIVE LABEL": "met"}
{"COMPOUND": "COc1ccc(Cl)cc1C(=O)Nc1ccc(NC(=O)c2ccc(C(C)(C)C)cc2)cc1 [Compound 5795860]", "QUALITATIVE LABEL": "met"}
{"COMPOUND": "Cc1nc2cc(-c3cccc(F)c3)nn2c(O)c1C [Compound 6156840]", "QUALITATIVE LABEL": "met"}
{"COMPOUND": "COc1ccc(S(=O)(=O)Nc2cc(Cl)ccc2C)cc1 [Compound 6118535]", "QUALITATIVE LABEL": "met"}
{"COMPOUND": "O=C1C(=Cc2ccccc2)CCCC1CN1CCOCC1 (centres unmarked) [NRB 01540, hydrochloride]", "QUALITATIVE LABEL": "met"}
{"COMPOUND": "Cc1ccccc1C(=O)Nc1cccc(NC(=O)c2ccc(-c3ccc(Br)cc3)o2)c1 [Compound 6021688]", "QUALITATIVE LABEL": "met"}
{"COMPOUND": "COc1cc(C=C2SC(=S)NC2=O)cc(Cl)c1OC(C)C [Compound 5868253]", "QUALITATIVE LABEL": "not met"}
{"COMPOUND": "COn1c(=O)c(=O)n(OC)c2ccccc21 [Compound 5896361]", "QUALITATIVE LABEL": "met"}
{"COMPOUND": "NC(=O)NC(c1ccccc1)c1ccccc1Br (centres unmarked) [Compound 5571356, N-[(2-bromophenyl)(phenyl)methyl]urea]", "QUALITATIVE LABEL": "met"}
{"COMPOUND": "O=C(NCc1ccccn1)C(=O)Nc1ccc([N+](=O)[O-])cc1 [Compound 6198885]", "QUALITATIVE LABEL": "met"}
{"COMPOUND": "Cc1cc(OCC(=O)Nc2ccc(N3CCOCC3)c(Cl)c2)cc(C)c1Cl [Compound 6013775]", "QUALITATIVE LABEL": "met"}
{"COMPOUND": "CCOC(=O)[C@H]1C(=O)c2ccccc2C(=O)/C1=C/c1ccc(CC)cc1 [Compound 5860904]", "QUALITATIVE LABEL": "not met"}
{"COMPOUND": "O=C1NC(=S)SC1=Cc1ccc(Oc2ccc([N+](=O)[O-])cn2)cc1 [Compound 12]", "QUALITATIVE LABEL": "not met"}
{"COMPOUND": "NNC(=O)c1cc(COc2cc(Cl)cc(Cl)c2)on1 [Compound 4]", "QUALITATIVE LABEL": "not met"}
{"COMPOUND": "CCOc1ccc(C(=O)Nc2ccc3oc(-c4ccccc4Br)nc3c2)cc1 [Compound 15]", "QUALITATIVE LABEL": "not met"}
{"COMPOUND": "Cc1ccc(-c2cc(N)n(Cc3ccc(Cl)cc3)n2)cc1 [Compound 6077076]", "QUALITATIVE LABEL": "not met"}
{"COMPOUND": "CCN1C(=O)c2cccc3c(NC(=O)c4ccc(S(=O)(=O)N(C)C)cc4)ccc1c23 [Compound 6]", "QUALITATIVE LABEL": "not met"}
{"COMPOUND": "O=C(Nc1ccccc1)Nc1nnc(Cc2ccc(F)cc2)s1 [Compound 5789300]", "QUALITATIVE LABEL": "met"}
